TESTED TARGET: ABCG2 (Homo sapiens)
Sequence (Q9UNQ0 whole entry): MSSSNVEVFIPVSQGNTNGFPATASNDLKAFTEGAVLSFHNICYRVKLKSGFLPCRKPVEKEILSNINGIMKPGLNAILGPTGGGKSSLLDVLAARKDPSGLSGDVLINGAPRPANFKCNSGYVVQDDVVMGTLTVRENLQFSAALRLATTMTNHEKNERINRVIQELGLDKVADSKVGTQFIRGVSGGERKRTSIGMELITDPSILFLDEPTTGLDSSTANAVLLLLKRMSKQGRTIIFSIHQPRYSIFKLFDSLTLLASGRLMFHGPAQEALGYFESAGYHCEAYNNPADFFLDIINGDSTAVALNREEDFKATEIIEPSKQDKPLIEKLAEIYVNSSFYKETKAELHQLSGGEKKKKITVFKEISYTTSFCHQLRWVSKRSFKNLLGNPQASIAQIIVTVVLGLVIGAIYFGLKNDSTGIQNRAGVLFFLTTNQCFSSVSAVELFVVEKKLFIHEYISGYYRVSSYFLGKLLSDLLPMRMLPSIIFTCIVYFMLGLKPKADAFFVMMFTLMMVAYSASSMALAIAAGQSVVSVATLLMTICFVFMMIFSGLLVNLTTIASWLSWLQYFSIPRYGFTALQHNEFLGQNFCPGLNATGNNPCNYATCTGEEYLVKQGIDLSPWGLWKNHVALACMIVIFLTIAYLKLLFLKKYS
ASSAY INFO: Inhibition of ABCG2 (unknown origin) transfected in Flp-In-293 cells assessed as inhibition of Hoechst 33342 efflux after 90 mins by flow cytometry
Format: cell-based
PROTOCOL CONDITIONS: Flp-In-293 cells transfected with ABCG2, probe Hoechst 33342
EXPERIMENTAL ENDPOINT: inhibition at 1.5 h (%)
Output spec: scalar in %, unitless text.

In: State the recorded inhibition at 1.5 h for this entry: `C=CC(C)(C)[C@]12C[C@@H](C(=O)Nc3ccccc3C(=O)OC)N(C(=O)[C@@H](C)NC(=O)OC(C)(C)C)[C@H]1N(C(C)=O)c1ccccc12`
Out: 27.5

---

TESTED TARGET: ABCG2 (Homo sapiens)
Sequence (Q9UNQ0 whole entry): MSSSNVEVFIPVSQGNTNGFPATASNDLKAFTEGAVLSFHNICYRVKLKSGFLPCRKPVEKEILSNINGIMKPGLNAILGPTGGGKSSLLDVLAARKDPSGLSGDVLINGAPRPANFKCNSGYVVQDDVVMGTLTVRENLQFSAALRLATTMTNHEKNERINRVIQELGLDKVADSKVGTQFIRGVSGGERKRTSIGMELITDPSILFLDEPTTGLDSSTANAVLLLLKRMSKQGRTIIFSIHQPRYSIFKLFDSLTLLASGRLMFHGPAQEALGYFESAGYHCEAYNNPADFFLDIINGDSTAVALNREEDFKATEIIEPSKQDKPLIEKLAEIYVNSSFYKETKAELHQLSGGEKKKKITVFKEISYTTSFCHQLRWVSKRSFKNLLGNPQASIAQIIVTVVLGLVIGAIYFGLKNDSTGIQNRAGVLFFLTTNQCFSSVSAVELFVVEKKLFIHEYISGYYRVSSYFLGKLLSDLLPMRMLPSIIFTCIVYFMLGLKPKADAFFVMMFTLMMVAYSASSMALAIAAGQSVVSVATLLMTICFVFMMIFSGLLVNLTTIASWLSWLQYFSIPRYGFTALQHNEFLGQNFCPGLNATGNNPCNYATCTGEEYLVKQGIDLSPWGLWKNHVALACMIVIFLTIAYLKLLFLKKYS
ASSAY INFO: Inhibition of ABCG2 (unknown origin) transfected in Flp-In-293 cells assessed as inhibition of Hoechst 33342 efflux measured as inhibition ratio after 90 mins by flow cytometry
Assay type: cell-based
Design: concentration or dose not given beside the values
PROTOCOL CONDITIONS: Flp-In-293 cells transfected with ABCG2, probe Hoechst 33342
EXPERIMENTAL ENDPOINT: inhibition at 1.5 h (%)
Output spec: scalar in %, unitless text.

Examples with their reported inhibition at 1.5 h follow.
{"ITEM SMILES": "C=CC(C)(C)[C@@]12C[C@H]3c4nc5ccc(Cl)cc5c(=O)n4[C@H](C)C(=O)N3[C@@H]1N(C(C)=O)c1ccccc12", "VALUE UNIT": "%", "MEASURED VALUE": 66.8}
{"ITEM SMILES": "C=CC(C)(C)[C@@]12C[C@H]3c4nc5ccc(F)cc5c(=O)n4[C@H](C)C(=O)N3[C@@H]1N(C(C)=O)c1ccccc12", "VALUE UNIT": "%", "MEASURED VALUE": 34.6}

In: State the recorded inhibition at 1.5 h for this entry: `C=CC(C)(C)[C@@]12C[C@H]3c4nc5ccccc5c(=O)n4[C@H](C)C(=O)N3[C@@H]1N(C(C)=O)c1ccccc12`
Out: 21.8

In: State the recorded inhibition at 1.5 h for this entry: `C=CC(C)(C)[C@@]12C[C@H]3c4nc5ccc(Br)cc5c(=O)n4[C@H](C)C(=O)N3[C@@H]1N(C(C)=O)c1ccccc12`
Out: 64.5

In: State the recorded inhibition at 1.5 h for this entry: `C=CC(C)(C)[C@@]12C[C@H]3c4nc5ccc(I)cc5c(=O)n4[C@H](C)C(=O)N3[C@@H]1N(C(C)=O)c1ccccc12`
Out: 35.4
